These entries and their values trace back to paper PMC8954792.

Test system: pseudotyped SARS-CoV-2 Alpha (B.1.1.7)
test_name: microbe, parasite or virus in culture
Assay type: cell-based
condition_info: Severe acute respiratory syndrome coronavirus 2, Caco-2
Mark T only for IC50 values smaller than 0.4 µM; exact matches and larger values are F.

Example results:
In [3]: df
Out[3]:
                                item_smiles                           tested_target  class_assignment
0  C#CCOc1ccc(CCN2C(=O)/C(=C/c3ccc(-c4ccc(Cl)c(C(=O)O)c4)o3)SC2=S)cc1  pseudotyped SARS-CoV-2 Alpha (B.1.1.7)                 T
1  O=C(O)c1cc(-c2ccc(/C=C3\SC(=S)N(CCc4ccc(OCC5CC5)cc4)C3=O)o2)ccc1Cl  pseudotyped SARS-CoV-2 Alpha (B.1.1.7)                 T
2  CCOc1ccc(CCN2C(=O)/C(=C/c3ccc(-c4ccc(Cl)c(C(=O)O)c4)o3)SC2=S)cc1  pseudotyped SARS-CoV-2 Alpha (B.1.1.7)                 F
3  C#CCOCCOc1ccc(CCN2C(=O)/C(=C/c3ccc(-c4ccc(Cl)c(C(=O)O)c4)o3)SC2=S)cc1  pseudotyped SARS-CoV-2 Alpha (B.1.1.7)                 T

Consider the record given below.
State whether 0.4 µM exceeds IC50 recorded for "O=C(O)c1cc(-c2ccc(/C=C3\SC(=S)N(CCc4ccc(OCc5ccc(F)cc5)cc4)C3=O)o2)ccc1Cl" .
F

----------
Please provide measured SI CC50/EC50 for the entries that follow.
Test system: cell-free MERS-CoV PsV

Take a look at these entries with their results.
>>> df
                                   compound           tested_target  readout_name  reported_value
0  O=C(O)c1cc(-c2ccc(/C=C3\SC(=S)N(CCc4ccc(OCC5CC5)cc4)C3=O)o2)ccc1Cl [FD012]  cell-free MERS-CoV PsV  SI CC50/EC50          372.40
1  C#CCOCCOc1ccc(CCN2C(=O)/C(=C/c3ccc(-c4ccc(Cl)c(C(=O)O)c4)o3)SC2=S)cc1 [FD008]  cell-free MERS-CoV PsV  SI CC50/EC50           56.38
2  O=C(O)c1cc(-c2ccc(C=C3SC(=S)N(CCc4ccccc4)C3=O)o2)ccc1Cl [FD001, furanyl methylidene rhodanine]  cell-free MERS-CoV PsV  SI CC50/EC50           38.08
3  CCOc1ccc(CCN2C(=O)/C(=C/c3ccc(-c4ccc(Cl)c(C(=O)O)c4)o3)SC2=S)cc1 [FD009]  cell-free MERS-CoV PsV  SI CC50/EC50           94.97

We now examine a further compound.
Please state recorded SI CC50/EC50 (tested on cell-free MERS-CoV PsV) of C#CCOc1ccc(CCN2C(=O)/C(=C/c3ccc(-c4ccc(Cl)c(C(=O)O)c4)o3)SC2=S)cc1 [FD007]
>56.18

----------
System: cell-free SARS-CoV PsV
readout_name: SI CC50/EC50

Take a look at these entries with their results.
In [3]: df
Out[3]:
                                item_smiles  readout_name  reported_value
0  O=C(O)c1cc(-c2ccc(/C=C3\SC(=S)N(CCc4ccc(OCc5ccsc5)cc4)C3=O)o2)ccc1Cl  SI CC50/EC50          186.20
1  O=C(O)c1cc(-c2ccc(/C=C3\SC(=S)N(CCc4ccc(OCc5ccc(F)cc5)cc4)C3=O)o2)ccc1Cl  SI CC50/EC50          107.47
2  C#CCOc1ccc(CCN2C(=O)/C(=C/c3ccc(-c4ccc(Cl)c(C(=O)O)c4)o3)SC2=S)cc1  SI CC50/EC50           21.50
3  C#CCOCCOc1ccc(CCN2C(=O)/C(=C/c3ccc(-c4ccc(Cl)c(C(=O)O)c4)o3)SC2=S)cc1  SI CC50/EC50          123.37
4  O=C(O)c1cc(-c2ccc(C=C3SC(=S)N(CCc4ccccc4)C3=O)o2)ccc1Cl  SI CC50/EC50           18.25
5  O=C(O)c1cc(-c2ccc(/C=C3\SC(=S)N(CCc4ccc(OCC5CC5)cc4)C3=O)o2)ccc1Cl  SI CC50/EC50          102.50

We now examine a further compound.
Please state recorded SI CC50/EC50 (tested on cell-free SARS-CoV PsV) of "CCOc1ccc(CCN2C(=O)/C(=C/c3ccc(-c4ccc(Cl)c(C(=O)O)c4)o3)SC2=S)cc1"
144.75

----------
Tested on: H7N9 PsV
test_name: microbe, parasite or virus in culture
Format: cell-based, influenza virus
condition_info: Influenza A virus, H7N9, MDCK, read-out: IC50 H7N9
Please provide measured pIC50 for the entries that follow.
Give bare numbers, as −log10 of the molar value.

>>> print(df.to_string())
                                item_smiles  readout_name  reported_value
0  O=C(O)c1cc(-c2ccc(/C=C3\SC(=S)N(CCc4ccc(OCc5ccsc5)cc4)C3=O)o2)ccc1Cl         pIC50            5.45
1  C#CCOCCOc1ccc(CCN2C(=O)/C(=C/c3ccc(-c4ccc(Cl)c(C(=O)O)c4)o3)SC2=S)cc1         pIC50            5.60
2  C#CCOc1ccc(CCN2C(=O)/C(=C/c3ccc(-c4ccc(Cl)c(C(=O)O)c4)o3)SC2=S)cc1         pIC50            5.67
3  O=C(O)c1cc(-c2ccc(/C=C3\SC(=S)N(CCc4ccc(OCC5CC5)cc4)C3=O)o2)ccc1Cl         pIC50            6.64

Hey, can you go through the list below and give me pIC50 for every item?
1. CCOc1ccc(CCN2C(=O)/C(=C/c3ccc(-c4ccc(Cl)c(C(=O)O)c4)o3)SC2=S)cc1
2. O=C(O)c1cc(-c2ccc(/C=C3\SC(=S)N(CCc4ccc(OCc5ccc(F)cc5)cc4)C3=O)o2)ccc1Cl

1: 5.85; 2: 5.23

----------
test_name: Cytotoxicity (CCK-8) on hACE2-293T cells
condition_info: human
Mark MET only for CC50 at 48 h values smaller than 20 µM; exact matches and larger values are NOT MET.

Example results:
                                   molecule  class_assignment
0  O=C(O)c1cc(-c2ccc(/C=C3\SC(=S)N(CCc4ccc(OCC5CC5)cc4)C3=O)o2)ccc1Cl [FD012]               MET
1  CCOc1ccc(CCN2C(=O)/C(=C/c3ccc(-c4ccc(Cl)c(C(=O)O)c4)o3)SC2=S)cc1 [FD009]               MET
2  O=C(O)c1cc(-c2ccc(/C=C3\SC(=S)N(CCc4ccc(OCc5ccsc5)cc4)C3=O)o2)ccc1Cl [FD013]               MET
3  C#CCOCCOc1ccc(CCN2C(=O)/C(=C/c3ccc(-c4ccc(Cl)c(C(=O)O)c4)o3)SC2=S)cc1 [FD008]           NOT MET

State whether 20 µM exceeds CC50 at 48 h recorded for C#CCOc1ccc(CCN2C(=O)/C(=C/c3ccc(-c4ccc(Cl)c(C(=O)O)c4)o3)SC2=S)cc1 [FD007] .
NOT MET

----------
# collection of SI CC50/IC50 values tested on SARS-CoV PsV

Take a look at these entries with their results.
>>> print(df.to_string())
                                item_smiles  tested_target  readout_name  reported_value
0  O=C(O)c1cc(-c2ccc(/C=C3\SC(=S)N(CCc4ccc(OCc5ccc(F)cc5)cc4)C3=O)o2)ccc1Cl   SARS-CoV PsV  SI CC50/IC50           70.41
1  O=C(O)c1cc(-c2ccc(/C=C3\SC(=S)N(CCc4ccc(OCc5ccsc5)cc4)C3=O)o2)ccc1Cl   SARS-CoV PsV  SI CC50/IC50          372.40

Hey, can you go through the list below and give me SI CC50/IC50 for every item?
1. C#CCOCCOc1ccc(CCN2C(=O)/C(=C/c3ccc(-c4ccc(Cl)c(C(=O)O)c4)o3)SC2=S)cc1
2. C#CCOc1ccc(CCN2C(=O)/C(=C/c3ccc(-c4ccc(Cl)c(C(=O)O)c4)o3)SC2=S)cc1
3. O=C(O)c1cc(-c2ccc(C=C3SC(=S)N(CCc4ccccc4)C3=O)o2)ccc1Cl

1. 468.80
2. 301.00
3. 160.22

----------
Tested on: VSV PsV
test_name: microbe, parasite or virus in culture
Assay type: cell-based, vesicular stomatitis virus
condition_info: Vesicular stomatitis virus, Huh-7
readout_name: pIC50
Answers are plain numbers, as −log10 of the molar value.

For the compound "O=C(O)c1cc(-c2ccc(/C=C3\SC(=S)N(CCc4ccc(OCC5CC5)cc4)C3=O)o2)ccc1Cl" , what pIC50 is on record?
8.30
